- TARGET_OR_TEST_SYSTEM: Tyrosine-protein kinase Lyn (Homo sapiens) (UniProt P07948);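 note: kinase tested as its LYN B splice variant, values given as mean percent inhibition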
- Sequence (P07948 2-512 limits assumed): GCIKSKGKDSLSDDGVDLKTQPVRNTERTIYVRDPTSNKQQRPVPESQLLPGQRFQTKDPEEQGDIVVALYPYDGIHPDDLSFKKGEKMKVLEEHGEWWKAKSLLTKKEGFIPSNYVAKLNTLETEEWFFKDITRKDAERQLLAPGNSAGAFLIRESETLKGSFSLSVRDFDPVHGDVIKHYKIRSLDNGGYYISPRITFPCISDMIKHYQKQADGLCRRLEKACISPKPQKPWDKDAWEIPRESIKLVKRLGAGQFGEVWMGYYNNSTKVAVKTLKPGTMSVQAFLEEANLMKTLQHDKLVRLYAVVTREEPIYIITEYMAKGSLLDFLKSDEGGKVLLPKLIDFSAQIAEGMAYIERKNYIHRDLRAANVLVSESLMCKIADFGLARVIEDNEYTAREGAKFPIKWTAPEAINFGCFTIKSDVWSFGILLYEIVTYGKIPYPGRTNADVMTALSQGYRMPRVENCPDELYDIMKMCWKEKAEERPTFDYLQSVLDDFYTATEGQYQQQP
- COND: at 1 µM
- Description: GSK_PKIS: LYN B (splice variant) mean inhibition at 1 uM [Nanosyn]
OUTCOME_MEASURE: inhibition

Solved entries (count: 4):
Fc1ccc(-c2c(-c3ccncc3)nc3n2CCS3)cc1: 3.93%
O=C(Nc1n[nH]c2cc(-c3ccccc3)ccc12)C1CC1: 5.33%
CN(C)c1ccc2c(c1)/C(=C/Nc1ccc(S(N)(=O)=O)cc1)C(=O)N2: 17.4%
Fc1ccc(-c2ncn(C3CCNCC3)c2-c2ccnc(Oc3ccc(F)c(F)c3)n2)cc1: 2.48%

Request: Give the measured inhibition of `CCc1ccc(Oc2nccc(-c3c(-c4ccc(F)cc4)ncn3C3CCNCC3)n2)cc1` .
Result: 3.26%

Request: Give the measured inhibition of `COc1ccc(C2=C(N3CCc4ccccc43)C(=O)NC2=O)cc1` .
Result: 5.98%

Request: Give the measured inhibition of `NC(=O)c1cc(-c2ccc(F)cc2)cc(-c2ccncc2)c1N` .
Result: 5.99%

Request: Give the measured inhibition of `COc1cc2ncn(-c3cc(OCc4cccs4)c(C(N)=O)s3)c2cc1OC` .
Result: 19.3%

Request: Give the measured inhibition of COc1ccc2cc(-c3c(-c4ccncc4)nc(-c4ccc([S+](C)[O-])cc4C)n3C)ccc2c1 (stereo not given) .
Result: 16.8%

Request: Give the measured inhibition of `COc1cc(Nc2ncc3c(C)nc(-c4cccc(Oc5ccccc5)c4)n3n2)cc(OC)c1OC` .
Result: 3.75%

###

- TARGET_OR_TEST_SYSTEM: NT-3 growth factor receptor (Homo sapiens) (UniProt Q16288);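 note: mean TRKC inhibition from the GSK PKIS kinase inhibitor set, with assays run by Nanosyn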
- Sequence (Q16288 32-839 limits assumed): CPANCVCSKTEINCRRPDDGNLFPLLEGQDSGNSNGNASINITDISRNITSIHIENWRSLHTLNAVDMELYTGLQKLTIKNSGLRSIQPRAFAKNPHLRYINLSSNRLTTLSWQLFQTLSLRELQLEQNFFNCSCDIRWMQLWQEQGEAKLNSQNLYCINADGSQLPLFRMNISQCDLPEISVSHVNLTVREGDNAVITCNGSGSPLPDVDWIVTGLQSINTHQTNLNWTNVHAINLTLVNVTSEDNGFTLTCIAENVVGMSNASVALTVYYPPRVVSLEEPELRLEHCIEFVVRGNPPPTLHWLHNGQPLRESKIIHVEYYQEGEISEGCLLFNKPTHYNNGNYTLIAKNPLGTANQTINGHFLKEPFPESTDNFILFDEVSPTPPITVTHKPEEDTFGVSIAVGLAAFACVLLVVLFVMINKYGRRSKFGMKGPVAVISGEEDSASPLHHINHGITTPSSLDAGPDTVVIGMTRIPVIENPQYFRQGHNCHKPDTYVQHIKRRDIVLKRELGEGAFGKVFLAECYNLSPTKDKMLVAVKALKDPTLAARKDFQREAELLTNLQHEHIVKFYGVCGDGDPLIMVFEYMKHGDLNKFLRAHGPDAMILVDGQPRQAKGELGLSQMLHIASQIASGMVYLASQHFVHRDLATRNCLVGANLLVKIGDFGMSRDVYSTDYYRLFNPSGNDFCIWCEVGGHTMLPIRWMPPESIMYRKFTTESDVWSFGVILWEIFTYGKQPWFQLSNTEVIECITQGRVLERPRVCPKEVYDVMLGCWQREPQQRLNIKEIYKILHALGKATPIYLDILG
- COND: at 1 µM
inhibition below 10% gives n; inhibition at or above it gives y.

Worked set:
NC(=O)c1cc(-c2ccncc2)cc(-c2ccccc2)c1N: n
COc1ccc2ncn(-c3cc(O[C@H](C)c4ccccc4Cl)c(C(N)=O)s3)c2c1: y
Fc1ccc(-c2ncn(C3CCNCC3)c2-c2ccnc(Oc3ccc4c(c3)OCO4)n2)cc1: n
C/C(Nc1ccc(S(N)(=O)=O)cc1)=C1/C(=O)Nc2ccccc21: y
COc1cc(Nc2ncc(-c3ccccc3)o2)cc(OC)c1OC: y
CCc1ccc(Oc2nccc(-c3c(-c4ccc(F)cc4)ncn3C3CCNCC3)n2)cc1: n

Request: Test whether the compound `COC(=O)Nc1nc2ccc(Sc3ccc(NC(=O)Nc4cc(C(F)(F)F)ccc4F)cc3)cc2[nH]1` records inhibition of 10% or higher.
Result: y

Request: Test whether the compound `CN(C)CCOc1ccc(-c2cc(-c3ccc4c(c3)CCC4=NO)c(-c3ccncc3)o2)cc1` records inhibition of 10% or higher.
Result: n

Request: Test whether the compound Nc1nccc(-c2c(-c3ccc(F)cc3)ncn2C2CCC(O)CC2)n1 (stereo not given) records inhibition of 10% or higher.
Result: y

Request: Test whether the compound `COc1cc2ncn(-c3cc(OCCc4ccccc4)c(C(N)=O)s3)c2cc1OC` records inhibition of 10% or higher.
Result: y

###

- TARGET_OR_TEST_SYSTEM: Casein kinase I isoform gamma-1 (Homo sapiens) (UniProt Q9HCP0);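 note: reported value is the mean inhibition of CK1 gamma-1 kinase activity across replicate measurements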
- Sequence (Q9HCP0 whole entry, looked up, canonical isoform): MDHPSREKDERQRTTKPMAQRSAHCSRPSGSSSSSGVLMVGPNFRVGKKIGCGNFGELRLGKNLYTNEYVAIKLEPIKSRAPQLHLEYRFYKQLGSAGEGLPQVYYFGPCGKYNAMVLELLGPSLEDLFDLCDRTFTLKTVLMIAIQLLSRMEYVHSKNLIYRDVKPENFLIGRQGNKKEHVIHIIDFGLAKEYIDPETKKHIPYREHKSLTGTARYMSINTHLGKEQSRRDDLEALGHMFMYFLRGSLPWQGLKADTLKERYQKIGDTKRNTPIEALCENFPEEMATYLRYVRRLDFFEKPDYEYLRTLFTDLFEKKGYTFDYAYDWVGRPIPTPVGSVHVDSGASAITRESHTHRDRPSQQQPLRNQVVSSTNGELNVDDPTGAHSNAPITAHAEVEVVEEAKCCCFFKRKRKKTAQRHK
- COND: at 1 µM
OUTCOME_MEASURE: inhibition (%)
Write the answer as a number in %, unit excluded.

Solved entries (count: 5):
CS(=O)(=O)CCNCc1cc(-c2cc3c(Nc4ccc(OCc5cccc(F)c5)c(Cl)c4)ncnc3s2)cs1: 4.73
COc1cc2ncn(-c3cc(OCc4cccs4)c(C(N)=O)s3)c2cc1OC: -1.01
Fc1ccc(-c2nc3n(c2-c2ccncc2)CCS3)cc1: 5.36
Fc1ccc(-c2ncn(C3CCNCC3)c2-c2ccnc(Oc3ccc(F)c(F)c3)n2)cc1: 2.33
CCc1cccc(CC)c1/C=C/c1cncc(C(=O)NC)c1: 5.44

Request: Give the measured inhibition of `COc1ccc2ncn(-c3cc(O[C@H](C)c4ccccc4Cl)c(C(N)=O)s3)c2c1` .
Result: -0.54

Request: Give the measured inhibition of `COc1cc2ncn(-c3cc(OCCc4ccccc4)c(C(N)=O)s3)c2cc1OC` .
Result: 5.65

###

- TARGET_OR_TEST_SYSTEM: Serine/threonine-protein kinase MARK2 (Homo sapiens);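 note: mean percent inhibition of PAR-1Balpha kinase activity, reported from the GSK PKIS screen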
- COND: at 0.1 µM
Entries and their inhibition values follow.
Write the answer as a number in %, unit excluded.

COc1ccc(C2=C(N3CCc4ccccc43)C(=O)NC2=O)cc1: -0.02
NC(=O)c1cc(-c2ccc(F)cc2)cc(-c2ccncc2)c1N: 0.15

Request: Give the measured inhibition of `C[C@@H](Oc1cc(-n2cnc3ccc(OCC4CCN(C)CC4)cc32)sc1C(N)=O)c1ccccc1Cl` .
Result: 3.52

Request: Give the measured inhibition of `CCC(=O)Nc1ccc(C)c(-c2ccc(C(=O)NCC3CC3)cc2)c1` .
Result: 0.59

Request: Give the measured inhibition of `CCS(=O)(=O)c1ccc(OC)c(Nc2ncc(-c3ccccc3Cl)o2)c1` .
Result: 1.4

Request: Give the measured inhibition of `COc1cc2ncn(-c3cc(OCc4cccs4)c(C(N)=O)s3)c2cc1OC` .
Result: 1.68

Request: Give the measured inhibition of `COc1cc(C)c(N(C)C(=O)CN(C)C)cc1Nc1nc(Nc2cccc(F)c2C(N)=O)c2cc[nH]c2n1` .
Result: 0.4

Request: Give the measured inhibition of `CS(=O)(=O)CCNCc1ccc(-c2ccc3ncnc(Nc4ccc(OCc5ccccc5)c(Br)c4)c3c2)o1` .
Result: 0.23

Request: Give the measured inhibition of `CN(C)CCCNc1nccc(-c2c(-c3ccc(F)cc3)nn3cc(C(F)(F)F)ccc23)n1` .
Result: -0.22

Request: Give the measured inhibition of `COc1ccc(-c2ccc3c(NC(=O)C4CC4)n[nH]c3n2)cc1` .
Result: 0.67

Request: Give the measured inhibition of `C[C@@H](Oc1cc(-n2cnc3ccc(OC4CCN(C)CC4)cc32)sc1C(N)=O)c1ccccc1Cl` .
Result: 2.47

Request: Give the measured inhibition of `COc1ccc2ncn(-c3cc(O[C@H](C)c4ccccc4Cl)c(C(N)=O)s3)c2c1` .
Result: -0.63

Request: Give the measured inhibition of `Cc1ccc(C(=O)NC2CCC2)cc1-c1ccc(C(=O)NCC2CC2)cc1` .
Result: 0.5

Request: Give the measured inhibition of `CN(C)CCOc1ccc(-c2cc(-c3ccc4c(c3)CCC4=NO)c(-c3ccncc3)o2)cc1` .
Result: -1.72

Request: Give the measured inhibition of `COc1cc(Nc2ncc3c(C)nc(-c4cccc(Oc5ccccc5)c4)n3n2)cc(OC)c1OC` .
Result: 0.41

Request: Give the measured inhibition of COc1ccc2cc(-c3c(-c4ccncc4)nc(-c4ccc([S+](C)[O-])cc4C)n3C)ccc2c1 (configuration not stated) .
Result: -1.24

Request: Give the measured inhibition of `Fc1ccc(-c2ncn(C3CCNCC3)c2-c2ccnc(Oc3ccc4c(c3)OCO4)n2)cc1` .
Result: 0.67

###

- TARGET_OR_TEST_SYSTEM: Rhodopsin kinase GRK7 (Homo sapiens);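 note: reported figures are mean percent inhibition of GRK7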
- Sequence (whole entry): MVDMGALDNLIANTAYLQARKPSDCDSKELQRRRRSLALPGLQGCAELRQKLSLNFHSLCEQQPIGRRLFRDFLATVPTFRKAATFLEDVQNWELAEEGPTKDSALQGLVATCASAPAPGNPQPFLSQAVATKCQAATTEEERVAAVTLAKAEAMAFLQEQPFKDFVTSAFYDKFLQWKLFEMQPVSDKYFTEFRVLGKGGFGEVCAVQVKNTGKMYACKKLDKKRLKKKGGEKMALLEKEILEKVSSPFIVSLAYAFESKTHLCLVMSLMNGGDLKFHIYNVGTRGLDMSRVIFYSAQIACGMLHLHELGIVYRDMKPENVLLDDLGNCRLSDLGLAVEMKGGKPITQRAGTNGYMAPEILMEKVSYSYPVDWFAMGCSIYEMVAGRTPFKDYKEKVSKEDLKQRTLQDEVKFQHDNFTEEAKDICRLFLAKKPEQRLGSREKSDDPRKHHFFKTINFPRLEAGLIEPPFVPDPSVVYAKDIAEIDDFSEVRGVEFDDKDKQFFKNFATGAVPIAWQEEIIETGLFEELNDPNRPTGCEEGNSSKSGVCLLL
- COND: at 0.1 µM
OUTCOME_MEASURE: inhibition (%)
Write the answer as a number in %, unit excluded.

Fc1ccc(-c2nc3n(c2-c2ccncc2)CCS3)cc1: 2.77
CCC(=O)Nc1ccc(C)c(-c2ccc(C(=O)NCC3CC3)cc2)c1: 8.7
c1ccc(-c2n[nH]cc2-c2ccnc(-c3ccc(OCCN4CCOCC4)cc3)c2)nc1: 1.66
COc1cc2ncn(-c3cc(OCCc4ccccc4)c(C(N)=O)s3)c2cc1OC: 2.29

Request: Give the measured inhibition of `CCN(CC)Cc1ccc(Nc2nccc(-c3cnn4ncccc34)n2)cc1` .
Result: 10.6

Request: Give the measured inhibition of `O=C(Nc1n[nH]c2cc(-c3cc(F)ccc3F)ccc12)C1CC1` .
Result: 1.22

Request: Give the measured inhibition of `CN(c1ccc(NC(=O)Nc2c(Cl)cccc2Cl)cc1)c1ccnc(Nc2cccc(CS(C)(=O)=O)c2)n1` .
Result: 3.79

Origin of the recorded values: ChEMBL document CHEMBL1961873
